Reference source: ChEMBL document CHEMBL1132596

- Protocol Details: The clearance was measured in dog at dose 5 mg/kg after intravenous administration.
- Format: ADME, organism-based, Canis lupus familiaris
- Parameters: dose 5 mg/kg, route intravenous
- Test Conditions: in vivo
Measurement Type: clearance

| Given Smiles | Measurement |
| --- | --- |
| CCN(c1nc(C)nc(N2CCOCC2)n1)c1c(Br)cc(OC)cc1OC | 21.7 mL/min/kg |

====

- Target Under Test: Corticotropin-releasing factor receptor 1 (Rattus norvegicus)
- Sequence (P35353 whole entry): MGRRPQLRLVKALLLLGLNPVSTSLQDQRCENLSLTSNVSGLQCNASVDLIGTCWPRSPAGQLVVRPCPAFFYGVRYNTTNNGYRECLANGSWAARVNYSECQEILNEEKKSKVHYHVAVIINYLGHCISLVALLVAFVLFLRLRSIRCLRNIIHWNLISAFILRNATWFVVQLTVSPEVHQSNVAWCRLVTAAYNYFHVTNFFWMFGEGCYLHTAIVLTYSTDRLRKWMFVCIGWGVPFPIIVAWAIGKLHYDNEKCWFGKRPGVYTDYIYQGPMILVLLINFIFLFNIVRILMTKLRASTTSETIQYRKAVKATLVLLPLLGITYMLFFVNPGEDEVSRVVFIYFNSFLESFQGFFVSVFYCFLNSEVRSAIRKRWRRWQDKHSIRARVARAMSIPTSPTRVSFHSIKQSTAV
pKi: −log10 of the molar value.

| Given Smiles | pKi |
| --- | --- |
| CCN(c1nc(C)cc(C)n1)c1ccc(C(C)C)cc1I | 7.42 |
